Recorded MIC values for a group of molecules are listed next.
tested on: Klebsiella pneumoniae
Note: unit µM is implicit; provide only the numeric part.

Item: CC[C@H](C)[C@@H]1NC(=O)CNC(=O)[C@H](CCCN=C(N)N)NC(=O)[C@H](Cc2ccc(O)cc2)NC(=O)[C@@H]2CSSC[C@H](NC1=O)C(=O)N[C@@H](Cc1ccc(O)cc1)C(=O)N[C@@H](CCCN=C(N)N)C(=O)N[C@@H](CCCN=C(N)N)C(=O)N[C@H](C(=O)N[C@@H](CCCN=C(N)N)C(=O)O)CSSC[C@H](NC(=O)[C@H](Cc1c[nH]c3ccccc13)NC(=O)[C@@H](N)CCCN=C(N)N)C(=O)N[C@@H](Cc1ccccc1)C(=O)N[C@@H](CCCN=C(N)N)C(=O)N[C@@H](C(C)C)C(=O)N2 | System: Klebsiella pneumoniae | MIC: 1.74

Item: CC[C@H](C)[C@@H]1NC(=O)CNC(=O)[C@H](CCCN=C(N)N)NC(=O)[C@H](Cc2ccc(O)cc2)NC(=O)[C@@H]2CSSC[C@H](NC1=O)C(=O)N[C@@H](C)C(=O)N[C@@H](CCCN=C(N)N)C(=O)N[C@@H](CCCN=C(N)N)C(=O)N[C@H](C(=O)N[C@@H](CCCN=C(N)N)C(=O)O)CSSC[C@H](NC(=O)[C@H](Cc1c[nH]c3ccccc13)NC(=O)[C@@H](N)CCCCN)C(=O)N[C@@H](Cc1ccccc1)C(=O)N[C@@H](CCCN=C(N)N)C(=O)N[C@@H](C(C)C)C(=O)N2 | System: Klebsiella pneumoniae | MIC: 3.68
